test: NCI Yeast Anticancer Drug Screen. Data for the mlh1 rad18 strain (AID 175); conditions: S. cerevisiae mlh1 rad18 strain growth inhibition; at 5.0 µM (retest, dose inferred, filed as 0.5); hits give high values
This is part of a sample that, as a whole, favours compounds with a hit. Of some 79,000 tested, about 15% had one in any assay.
Examples of molecules with documented growth inhibition follow.

MOLECULE | growth inhibition, %
CN(C)c1ccccc1CN1CCCN(Cc2ccccc2N(C)C)C1 | 18
Cn1c2nc(-[n+]3ccc(-c4ccccc4)cc3)nc-2c([O-])n(C)c1=O | -1
O=C(Nc1ccc(F)c(Cl)c1)Oc1ccc(Br)cc1Br | -3
O=C1OC2(CCCCC2)OC(=O)C1=Cc1ccc([N+](=O)[O-])s1 | 14
CCN1C2=NC(=O)N(C)C(=O)C2(Cl)C(C(SC)S(=O)(=O)c2ccc(C)cc2)c2ccccc21 (stereo not given) | 2
Oc1cc(F)ccc1-c1ccc(F)cc1 | -6
O=C(Nc1ccccc1-c1nn(CN2CCNCC2)c(=S)n(CN2CCNCC2)c1=O)C(F)(F)F | -2
C=CC[P+](CC[P+](CC=C)(c1ccccc1)c1ccccc1)(c1ccccc1)c1ccccc1 | 1
CC(=O)Oc1cc(OC(C)=O)c2cc(Br)ccc2c1OC(C)=O | 5
CCCCCCCCCCC(=O)CC(=O)c1c(O)cccc1O | -16
